Target Desc: KMO mouse enzyme (Mus musculus, UniProt Q91WN4)
Construct: KMO enzyme prepared at Evotec from mouse liver (4-6 weeks old) via mitochondria isolation; from tissue; host or cells: mouse liver (4-6 weeks old), isolated mitochondria, prepared at Evotec
Sequence (Q91WN4 whole entry): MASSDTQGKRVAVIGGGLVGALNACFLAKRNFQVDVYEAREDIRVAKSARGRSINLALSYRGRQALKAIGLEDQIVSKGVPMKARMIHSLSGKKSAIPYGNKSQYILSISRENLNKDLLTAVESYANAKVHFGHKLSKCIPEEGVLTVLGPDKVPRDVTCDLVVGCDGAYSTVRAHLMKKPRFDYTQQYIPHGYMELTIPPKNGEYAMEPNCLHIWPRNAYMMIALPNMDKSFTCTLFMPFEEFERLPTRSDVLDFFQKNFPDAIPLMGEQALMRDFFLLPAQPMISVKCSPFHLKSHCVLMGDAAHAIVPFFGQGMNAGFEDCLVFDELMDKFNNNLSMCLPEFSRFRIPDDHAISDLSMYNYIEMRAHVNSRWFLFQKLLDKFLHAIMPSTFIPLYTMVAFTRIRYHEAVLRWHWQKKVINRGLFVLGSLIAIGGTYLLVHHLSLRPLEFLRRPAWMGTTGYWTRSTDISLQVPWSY
Assay Explanation: KMO mouse enzyme assay: L-Kynurenine hydroxylation to 3-Hydroxy-Kynurenine by LC/MS (protocols substantially similar to Example 33)
Type: biochemical
Conditions Used: compound at 30 µM; KMO enzyme from mouse liver mitochondria; 100 μM L-Kynurenine; 40 min at RT
Experimental: A method of monitoring L-Kynurenine (KYN) hydroxylation to form 3-Hydroxy-Kynurenine (3OH-KYN) by LC/MS is described. Product is quantified by multiple reaction monitoring (MRM method). […] Using the assay protocols substantially similar to those of Example 33, the following compounds were tested.
Result Type: inhibition at 30 µM (%)

Example compounds with recorded inhibition at 30 µM:
Compound: COC(=O)[C@H]1C[C@@H]1C(=O)c1cc(Cl)cc(Cl)c1
Reported Measurement: 104
//
Compound: CC1(C)[C@@H](C(=O)O)[C@@H]1C(=O)c1ccc(Cl)c(Cl)c1
Reported Measurement: 15.4
//
Compound: O=C1CN(C(=O)[C@H]2C[C@@H]2C(=O)c2ccc(Cl)c(Cl)c2)CCN1
Reported Measurement: 33
//
Compound: O=C(c1ccc(F)c(Cl)c1)C1C[C@@H]1C(=O)O (some centres unmarked)
Reported Measurement: 68
//
Compound: C[C@@H]1[C@@H](C(=O)O)[C@@H]1C(=O)c1ccc(Cl)c(Cl)c1 (single isomer, unassigned)
Reported Measurement: 96.7

P = Cc1ccc(C(=O)[C@H]2C[C@@H]2C(=O)O)cc1Cl
Q = O=C(c1ccc(Cl)c(Cl)c1)C1CC12CCOC2=O (centres unmarked)
Quick check, higher inhibition at 30 µM between P and Q ? To answer, give the label that identifies your chosen option.
P

1 = CCOC(=O)OC(C)OC(=O)[C@H]1C[C@@H]1C(=O)c1ccc(Cl)c(Cl)c1 (some centres unmarked)
2 = NC(=O)[C@H]1C[C@@H]1C(=O)c1ccc(OC2CC2)c(Cl)c1
Please let me know which one, 1 or 2 , has a lower measured inhibition at 30 µM value. To answer, give the label that identifies your chosen option.
2

P = O=C(OCCO)[C@H]1C[C@@H]1C(=O)c1ccc(Cl)c(Cl)c1
Q = CC1(C)[C@H](C(=O)O)[C@H]1C(=O)c1ccc(Cl)c(Cl)c1
Please let me know which one, P or Q , has a lower measured inhibition at 30 µM value. To answer, give the label that identifies your chosen option.
Q
